Listed next: entries and their corresponding IC50.
target: KRAS G12S (Homo sapiens, UniProt P01116, G12S); construct: made in house; host or cells: E. coli, e.g. BL21 (DE3); test: HTRF assay of K-Ras G12S interaction with SOS1 (PPI-HTRF); type: binding; settings: 5 nM KRAS G12S, read-out: PPI-HTRF-5 nM KRAS G12S
Sequence (P01116 1-188 isoform P01116-2 G12S): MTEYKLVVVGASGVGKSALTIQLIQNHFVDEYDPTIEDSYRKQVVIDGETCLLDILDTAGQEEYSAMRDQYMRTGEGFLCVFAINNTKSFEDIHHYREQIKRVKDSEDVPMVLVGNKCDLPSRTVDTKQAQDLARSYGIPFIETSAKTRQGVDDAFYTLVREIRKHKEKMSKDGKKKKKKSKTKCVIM

// known answers, use as guide
C[C@H](Oc1nc(N2CCC3(CCCN3C(=O)n3cncn3)C2)c2cc(Cl)c(-c3ccc(F)c4sc(N)c(C#N)c34)c(F)c2n1)[C@@H]1CCCN1C (stereo partly drawn) [Compound 241] ... < 5 µM
Cc1ncn(C(=O)N2CC[C@@]23CCN(c2nc(OC[C@@]45CCCN4C[C@H](F)C5)nc4c(F)c(-c5ccc(F)c6sc(N)c(C#N)c56)c(Cl)cc24)C3)n1 [Compound 339] ... < 5 µM

Prompt: Input Cc1ncn(C(=O)N2CC[C@]23CCN(c2nc(OC[C@@]45CCCN4C[C@H](F)C5)nc4c(F)c(-c5ccc(F)c6sc(N)c(C#N)c56)c(Cl)cc24)C3)n1 [Compound 250] , output reported IC50.
Response: < 5 µM
